The reported measurements were obtained from patent US20240293553A1.

- tested.target: T1, murine P-selectin-Fc chimera (murine, UniProt Q01102 42-709)
- T1 construct: Bought from R&D Systems; also called mouse P-selectin chimera; species-specific P-selectin-Fc chimera; not shown: Fc part
- T1 sequence (looked up): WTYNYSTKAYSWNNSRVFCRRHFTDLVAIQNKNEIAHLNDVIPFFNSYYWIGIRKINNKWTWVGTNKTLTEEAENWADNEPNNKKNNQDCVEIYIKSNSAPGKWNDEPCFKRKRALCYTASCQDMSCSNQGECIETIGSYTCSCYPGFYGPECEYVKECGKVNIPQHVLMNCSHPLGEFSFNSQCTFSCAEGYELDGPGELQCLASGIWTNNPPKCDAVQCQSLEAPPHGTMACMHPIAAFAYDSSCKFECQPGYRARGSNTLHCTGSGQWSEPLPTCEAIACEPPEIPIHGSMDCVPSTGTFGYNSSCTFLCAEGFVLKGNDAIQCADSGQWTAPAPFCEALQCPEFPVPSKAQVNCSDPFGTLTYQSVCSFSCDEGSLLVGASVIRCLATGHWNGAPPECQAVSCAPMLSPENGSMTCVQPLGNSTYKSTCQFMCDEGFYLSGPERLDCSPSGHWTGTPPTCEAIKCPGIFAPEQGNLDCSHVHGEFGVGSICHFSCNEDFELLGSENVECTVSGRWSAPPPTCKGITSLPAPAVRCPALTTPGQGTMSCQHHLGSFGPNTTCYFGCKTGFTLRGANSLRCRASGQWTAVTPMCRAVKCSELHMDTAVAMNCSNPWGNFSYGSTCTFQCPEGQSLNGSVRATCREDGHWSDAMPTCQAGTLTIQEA
- experiment.notes: flow cytometry competition: inhibition of murine P-selectin-Fc chimera (3 µg/mL) binding to murine neutrophils
Square brackets hold non-standard residues; d marks the D form. Side chains are listed from the residue outwards. Ends that are not written are not given here. mPEG 40 kDa (SVA) = 40 kDa methoxy poly(ethylene glycol) succinimidyl valerate (mPEG-SVA); triazole linker = not defined here; Fs = not defined here
reported.property: IC50 (µM)
// units = µM; emit number, no label

Input: Using the record for {mPEG 40 kDa (SVA)}-KE[Fs]E[Fs]LD[Fs]DFLPET([triazole linker-sLe^x])EPL (reading uncertain, also called PEG-G4; pegylated click compound) [PEG40-G4 (P-G4)] , report its IC50.
Output: 9
